Recorded Percent Similarity Score (KD on rN) values for a group of binders are listed next.
- SYSTEM TESTED: T1, rat NGF (rat, UniProt P25427 122-241)
- T1 construct: also called rN
- T1 sequence (P25427 122-241 limits assumed): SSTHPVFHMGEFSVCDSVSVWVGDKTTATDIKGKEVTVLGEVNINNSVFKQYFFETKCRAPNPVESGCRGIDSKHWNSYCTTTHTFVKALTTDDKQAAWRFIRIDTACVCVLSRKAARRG
- PROTOCOL TEXT: SPR (Biacore T200), 100 nM mAb on NGF chip, similarity to parent mAb
Could you give me the number in %? Just the number is fine.

can9L12VH_N52A (antibody, V domains shown) VH: EVQLVESGGDLVKPGGSLRLSCVASGFTFSSHGMHWVRQSPGKGLQWVAVIASGGSSTYYTDAVKGRFTISRDNAKNTVYLQMNSLRAEDTAMYYCAKESVGGWEQLVGPHFDYWGQGTLVIVSS VL: QSVLTQPTSVSGSLGQRVTISCSGSTNNIGILGASWYQLFPGKAPKLLVYGNGNRPSGVPDRFSGADSGDSVTLTITGLQAEDEADYYCQSFDTTLGAHVFGGGTHLTVL : 19.7

Next item in the queue.
Ask: Provide measured Percent Similarity Score (KD on rN) value, entry: can9L12VH_T28A (antibody, V domains shown) VH: EVQLVESGGDLVKPGGSLRLSCVASGFAFSSHGMHWVRQSPGKGLQWVAVINSGGSSTYYTDAVKGRFTISRDNAKNTVYLQMNSLRAEDTAMYYCAKESVGGWEQLVGPHFDYWGQGTLVIVSS VL: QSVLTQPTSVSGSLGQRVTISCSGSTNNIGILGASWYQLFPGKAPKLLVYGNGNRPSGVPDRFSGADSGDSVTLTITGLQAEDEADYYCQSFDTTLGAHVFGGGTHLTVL
Reply: 100
